System: Human B-Cell Lymphoma Cells (RPMI-8226)
TEST_DETAILS: Inhibition of RPMI-8226 cell proliferation (CellTiter luminescent viability)
Assay type: cell-based
CONDITION_LABEL: Table IA4, IRAK4 inhibitor-based, RPMI-8226, 500 nM, 96 hours, read-out: Inhibition Rate at 500 nM (%)
Procedure: The tumor cells used herein were cultured in a cell culture medium listed in table 3 at 37 °C in an incubator with 5% CO2. […] The IC50 values of the compounds of the present disclosure (including the compounds in Table 1, Table 2, and Examples 1-468) were determined using the CellTiter-Meiluncell Luminescent Cell Viability Assay Kit from Dalian Meilun Biotech Co., Ltd. The detailed procedure is as follows: Tumor cells were seeded in 96-well cell culture plates at the densities specified in Table 4. […]
PROPERTY_MEASURED: inhibition at 0.5 µM

Some entries whose results are on file:
* COc1cc2nn([C@H]3CC[C@H](CN4CCN(c5ccc6c(c5F)C(=O)N(N5CCC(=O)NC5=O)C6=O)CC4)CC3)cc2cc1NC(=O)c1cccc(C(F)(F)F)c1 [GT-08669] | 30 to 40%
* COc1cc2nn([C@H]3CC[C@H](CN4CCN(C5CCN(c6ccc7c(c6)C(=O)N(N6CCC(=O)NC6=O)C7=O)CC5(F)F)CC4)CC3)cc2cc1NC(=O)c1cccc(C(F)(F)F)n1 (stereo partly shown) [GT-08659] | 30 to 40%
* O=C1CCN(N2C(=O)c3ccc(N4C5CC4CN(C[C@H]4CC[C@H](n6cc(NC(=O)c7cnn8ccc(N9C[C@H]%10C[C@@H]9CO%10)nc78)c(C(F)F)n6)CC4)C5)cc3C2=O)C(=O)N1 [GT-05242] | 30 to 40%
* O=C1CCN(N2Cc3cc(CN4CCC(n5cc(NC(=O)c6coc(-c7ccnc(NCC(F)(F)F)c7)n6)c(C(F)F)n5)CC4)ccc3C2=O)C(=O)N1 [GT-05184] | 80 to 100%
* Cc1cc(-c2nc(C(=O)Nc3cc4oc(N5CCN(Cc6ccc7c(c6)CN(N6CCC(=O)NC6=O)C7=O)CC5)nc4nc3N3CC[C@@H](O)C3)co2)ccn1 [GT-05750] | 20 to 25%

So for CC(C)(O)c1cc2nc(C3CCN(CC4CCN(c5cccc6c5C(=O)N(N5CCC(=O)NC5=O)C6=O)CC4)CC3)sc2cc1NC(=O)c1cccc(C(F)(F)F)n1 [GT-05818] , the logged inhibition at 0.5 µM turned out to be 10 to 15%

The molecule listed as CC(C)(O)c1cc2nc(C3CCN(CC4CCN(c5ccc6c(c5)C(=O)N(N5CCC(=O)NC5=O)C6=O)CC4)CC3)oc2cc1NC(=O)c1cccc(C(F)(F)F)n1 [GT-05222] shows inhibition at 0.5 µM equal to 30 to 40%
